- protocolNotes: Quantitative High-Throughput drug screen in 47 multiple myeloma cell lines against the NCATS MIPE library collection: SKMM1_PLB cell viability assay (AID 1919863); also: series mostly up to about 46 µM; nearly all actives have a fitted effect of over 35% in size
- appliedConditions: SKMM1 myeloma viability, CellTiter-Glo ATP, 48 h; active compounds read low
Inconclusive results are not listed.
We begin with a simple list: items and their reported viability.
property: viability (%)

compound	property	measuredValue
COC[C@@H](NC(C)=O)C(=O)NCc1ccccc1	viability	103
NCC1(CC(=O)O)CCCCC1	viability	140
COC1(CS(=O)c2ccccc2)CCN(CCc2c[nH]c3ccc(F)cc23)CC1 (stereo unspecified)	viability	116
Cn1cc(C2=C(c3cn(C4CCN(Cc5ccccn5)CC4)c4ccccc34)C(=O)NC2=O)c2ccccc21	viability	86.1
O=C1CC[C@@]2(O)[C@H]3Cc4ccc(O)c5c4[C@@]2(CCN3CC2CC2)[C@H]1O5	viability	110
Cc1cccc(C)c1NC(=O)CN1CCCC1=O	viability	118
